Provenance of the data: patent US20230330254A1

assayProtocol: Liver microsome stability
Assay type: in vitro ADME, human
runConditions: human, liver microsomes; Table 5C; read-out: Human Liver microsome CLint(mic)
measure: microsomal CLint

### Prompt Form field: reported microsomal CLint of CCc1cc(OCCCCn2cc(COCCOCCOCCOCCOCCOCCOCCOCCN)nn2)ccc1-c1ccc(C[C@H](NC(=O)[C@H](CC(=O)O)NC(=O)[C@H](CO)NC(=O)[C@@H](NC(=O)C(C)(Cc2ccccc2F)NC(=O)[C@@H](NC(=O)CNC(=O)[C@H](Cc2nn[nH]n2)NC(=O)C(C)(C)C(=O)NCCc2cnc[nH]2)[C@@H](C)O)[C@@H](C)O)C(=O)N[C@@H](CCCc2cc(C)cc(C)c2)C(N)=O)cc1 (stereo partly shown)
### Response < 9.6 µL/min/mg

###

testedOn: human GLP1R (Homo sapiens)
Sequence (P43220 24-463): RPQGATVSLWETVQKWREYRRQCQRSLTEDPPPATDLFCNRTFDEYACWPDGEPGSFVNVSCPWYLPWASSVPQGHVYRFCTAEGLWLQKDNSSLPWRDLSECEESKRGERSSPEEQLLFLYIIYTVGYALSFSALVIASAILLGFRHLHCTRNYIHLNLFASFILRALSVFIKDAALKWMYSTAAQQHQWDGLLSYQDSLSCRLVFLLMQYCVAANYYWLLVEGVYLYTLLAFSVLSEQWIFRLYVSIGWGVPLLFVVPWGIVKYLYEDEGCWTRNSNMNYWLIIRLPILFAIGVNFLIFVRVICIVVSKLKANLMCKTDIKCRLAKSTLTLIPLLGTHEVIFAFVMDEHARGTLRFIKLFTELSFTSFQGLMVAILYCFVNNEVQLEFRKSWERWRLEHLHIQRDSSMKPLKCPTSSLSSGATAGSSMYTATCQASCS
assayProtocol: Luciferase reporter assay, HEK293/CRE-Luc/hGLP1R cells (Example 11)
Format: cell-based
Set-up: engineered to express full-length human GLP1R, cynomolgus GLP1R; expressed in transfected cells; host or cells: HEK293/CRE-Luc
runConditions: Table 11; Experiment A
Where a SMILES comes first, the peptide text is derived from it. [ ]: non-standard residue; d: D form. The star is where a group is joined. Bip(2'-Et,4'-O(CH2)4NH2) = CCc1cc(OCCCCN)ccc1-c1ccc(C[C@H](N)C(=O)O)cc1; Nva(5-(3,5-Me2Ph)) = Cc1cc(C)cc(CCC[C@H](N)C(=O)O)c1; Ala(1H-tetrazol-5-yl) = N[C@@H](Cc1nnn[nH]1)C(=O)O; αMePhe(2-F) = C[C@](N)(Cc1ccccc1F)C(=O)O; Desaminohistidyl = O=C(CCc1c[nH]cn1)*
measure: EC50 (pM)
Your answer should be a plain number; it is taken to be in pM.

### Prompt Form field: reported EC50 of CCc1cc(OCCCCn2cc(COCCOCCOCCOCCOCCOCCOCCOCCN)nn2)ccc1-c1ccc(C[C@H](NC(=O)[C@H](CC(=O)O)NC(=O)[C@H](CO)NC(=O)[C@@H](NC(=O)C(C)(Cc2ccccc2F)NC(=O)[C@@H](NC(=O)CNC(=O)[C@H](Cc2nn[nH]n2)NC(=O)C(C)(C)C(=O)NCCc2cnc[nH]2)[C@@H](C)O)[C@@H](C)O)C(=O)N[C@@H](CCCc2cc(C)cc(C)c2)C(N)=O)cc1 (some centres unmarked) [LP11, NH2-PEG8-triazole-P8]
### Response 16.1

### Prompt Try CCc1cc(OCCCCN)ccc1-c1ccc(C[C@H](NC(=O)[C@H](CC(=O)O)NC(=O)[C@H](CO)NC(=O)[C@@H](NC(=O)[C@](C)(Cc2ccccc2F)NC(=O)[C@@H](NC(=O)CNC(=O)[C@H](Cc2nn[nH]n2)NC(=O)CNC(=O)CCc2c[nH]cn2)[C@@H](C)O)[C@@H](C)O)C(=O)N[C@@H](CCCc2cc(C)cc(C)c2)C(N)=O)cc1 [P12] (Desaminohistidyl-G[Ala(1H-tetrazol-5-yl)]GT[αMePhe(2-F)]TSD[Bip(2'-Et,4'-O(CH2)4NH2)][Nva(5-(3,5-Me2Ph))]-NH2) next.
### Response 11.4

###

testedOn: UniProtKB P43220
assayProtocol: Human GLP1R cAMP accumulation assay
Format: cell-based
Set-up: HEK293 cells over-expressing full length human GLP-1R were utilized; expressed in transfected cells; host or cells: HEK293 (HEK293/hGLP1R)
runConditions: HEK293/hGLP1R cells; Table 4; read-out: cAMP EC50
Where a SMILES comes first, the peptide text is derived from it. [ ]: non-standard residue; d: D form. Bip(2'-Et,4'-O(CH2)4NH2) = CCc1cc(OCCCCN)ccc1-c1ccc(C[C@H](N)C(=O)O)cc1; Nva(5-(3,5-Me2Ph)) = Cc1cc(C)cc(CCC[C@H](N)C(=O)O)c1; Ala(1H-tetrazol-5-yl) = N[C@@H](Cc1nnn[nH]1)C(=O)O; αMePhe(2-F) = C[C@](N)(Cc1ccccc1F)C(=O)O
measure: pEC50
Reminder that pEC50 means the negative base-10 logarithm of the concentration expressed in mol/L.

### Prompt // map CCc1cc(OCCCCN)ccc1-c1ccc(C[C@H](NC(=O)[C@H](CC(=O)O)NC(=O)[C@H](CO)NC(=O)[C@@H](NC(=O)[C@](C)(Cc2ccccc2F)NC(=O)[C@@H](NC(=O)CNC(=O)[C@H](Cc2nn[nH]n2)NC(=O)[C@H](C)NC(=O)[C@@H](N)Cc2cnc[nH]2)[C@@H](C)O)[C@@H](C)O)C(=O)N[C@@H](CCCc2cc(C)cc(C)c2)C(N)=O)cc1 [P10] (H-HA[Ala(1H-tetrazol-5-yl)]GT[αMePhe(2-F)]TSD[Bip(2'-Et,4'-O(CH2)4NH2)][Nva(5-(3,5-Me2Ph))]-NH2) to recorded pEC50 (system: UniProtKB P43220)
### Response 10.33
